system: Plasmodium berghei; assay: Screen against P. berghei liver stage (PbLuc), transformed with Luciferase, at 10uM; format: functional, HepG2; settings: tested at 10 uM
About 8,600 (12%) of roughly 69,000 compounds showed an effect of 50% or more. Only a selection was taken, and strong results are over-represented in it overall.
Observable: INHIBITION (%)

{"Compound": "CCc1[nH]c2c(CNc3cncc(C(=O)N(C)C)n3)cc(C)cc2c1C", "Assay Value": 14.3}
{"Compound": "CC(C)CC(=O)N1Cc2ccccc2CC1C(=O)Nc1nccs1 (centres undefined)", "Assay Value": 31.6}
{"Compound": "COc1ccc(NC(=O)N(CCO)Cc2ccsc2)c(OC)c1", "Assay Value": 5.85}
{"Compound": "Cc1cnn(CCNCc2csc(-c3ccc(C)o3)n2)c1", "Assay Value": 15.3}

====

tested on: Plasmodium berghei; assay: Screen against P. berghei liver stage (PbLuc), transformed with Luciferase, at 10uM; assay type: functional, HepG2; conditions: tested at 10 uM
About 8,600 (12%) of roughly 69,000 compounds showed an effect of 50% or more. The entries come from a sample that favours strong results as a whole.

{"Compound": "O=S1(=O)NC2(CCCN(Cc3ccc(Cl)cc3)C2)COc2ccccc21 (stereo not given)", "Unit Abbreviation": "%", "INHIBITION": 27.5}
{"Compound": "Cc1cc(C)n(CC(=O)N2CCCCC2CCN2CCCC2=O)c(=O)n1 (stereo not given)", "Unit Abbreviation": "%", "INHIBITION": 44.2}
{"Compound": "Cc1nc(COC[C@H]2CCC[C@]23CN(CC2CC2)CCO3)cs1", "Unit Abbreviation": "%", "INHIBITION": 54.4}
{"Compound": "COC(=O)CN1CCN(c2nc3c(s2)c(C)nn3C)C(C)C1=O (stereo not given)", "Unit Abbreviation": "%", "INHIBITION": 52.9}
{"Compound": "Cc1nn(C)c2nc(N3CCNC(=O)C3Cc3ccccc3)sc12 (stereo not given)", "Unit Abbreviation": "%", "INHIBITION": 32.3}

====

test system: Plasmodium berghei; assay: Screen against P. berghei liver stage (PbLuc), transformed with Luciferase, at 10uM; assay type: functional, HepG2; conditions: tested at 10 uM
Out of some 69,000 compounds screened, about 8,600 (12%) showed an effect of 50% or more. This is one part of a sample in which strong results are shown more often than they occur.
Please assign false (0) whenever INHIBITION is at or above 20%, and true (1) whenever it is below.

{"Molecule": "COc1ccccc1N1CCN(C(=O)COc2c(C)occc2=O)CC1", "Assay Target": "Plasmodium berghei", "Answer Label": "true (1)"}
{"Molecule": "Cc1cc2c(cc1Cl)C=CC1(CCN(CC(=O)NC3CCCC3)CC1)O2", "Assay Target": "Plasmodium berghei", "Answer Label": "false (0)"}
{"Molecule": "Cn1cc(C(=O)OCC(N)=O)c(-c2ccc(F)cc2F)n1", "Assay Target": "Plasmodium berghei", "Answer Label": "false (0)"}
{"Molecule": "FC(F)(F)c1cccc(CN2CCOC[C@H](Oc3cccnc3)C2)c1", "Assay Target": "Plasmodium berghei", "Answer Label": "false (0)"}
{"Molecule": "CS(=O)(=O)N[C@H]1COC[C@@H]2CN(Cc3ccco3)C[C@@H]21", "Assay Target": "Plasmodium berghei", "Answer Label": "true (1)"}
{"Molecule": "CCN(CC)S(=O)(=O)N1CCCN(CC2CCCO2)CC1 (stereo not drawn)", "Assay Target": "Plasmodium berghei", "Answer Label": "false (0)"}
{"Molecule": "c1cncc(N2CCC(c3ccncc3)CC2)c1", "Assay Target": "Plasmodium berghei", "Answer Label": "false (0)"}
{"Molecule": "O=C(CCNC(=O)C1CCCC1)NCc1ccccc1Cn1ccnc1", "Assay Target": "Plasmodium berghei", "Answer Label": "true (1)"}
{"Molecule": "Cc1ccc(CN2CCOC(c3cnccn3)C2)s1 (stereo not drawn)", "Assay Target": "Plasmodium berghei", "Answer Label": "true (1)"}
{"Molecule": "COc1cc(C(=O)N2CC(Oc3ccccc3Cl)C2)ccn1", "Assay Target": "Plasmodium berghei", "Answer Label": "false (0)"}
{"Molecule": "O=C(NC[C@H]1OC[C@@H](NC2CCCCC2)[C@@H]1O)Nc1ccccc1", "Assay Target": "Plasmodium berghei", "Answer Label": "false (0)"}
{"Molecule": "NCCN1CCC(c2nnc(Cn3ccnc3)n2C2CC2)CC1", "Assay Target": "Plasmodium berghei", "Answer Label": "false (0)"}
{"Molecule": "O=C(O)CCN(Cc1ccc(F)c(F)c1)C(=O)C1CC1", "Assay Target": "Plasmodium berghei", "Answer Label": "false (0)"}
{"Molecule": "Cc1ccc(CCC(=O)N2CCOCC2)cc1Cl", "Assay Target": "Plasmodium berghei", "Answer Label": "true (1)"}
{"Molecule": "Cc1nc(CN2CCN(CC3CCOC3)Cc3cccnc32)cs1 (stereo not drawn)", "Assay Target": "Plasmodium berghei", "Answer Label": "false (0)"}
{"Molecule": "Cc1cccc(C(=O)N2CCCN(Cc3cscn3)CC2)c1", "Assay Target": "Plasmodium berghei", "Answer Label": "true (1)"}
{"Molecule": "Cc1cc2c(cc1Cl)C=CC1(CCN(CC(=O)N3CCCC3)CC1)O2", "Assay Target": "Plasmodium berghei", "Answer Label": "false (0)"}
{"Molecule": "CCc1cccc(NC(=O)N2CCn3cnc(COC)c3C2)c1", "Assay Target": "Plasmodium berghei", "Answer Label": "true (1)"}
{"Molecule": "CCOCc1cnc2n1CCN(C(=O)c1ccccc1)C2C (stereo not drawn)", "Assay Target": "Plasmodium berghei", "Answer Label": "false (0)"}
{"Molecule": "Cc1ccc(OCCCSC2=NCCN2)cc1", "Assay Target": "Plasmodium berghei", "Answer Label": "false (0)"}
{"Molecule": "Cc1ccsc1C(=O)N1CC[C@H]2CO[C@H](CN(C)C)[C@H]2C1", "Assay Target": "Plasmodium berghei", "Answer Label": "true (1)"}
{"Molecule": "CCOCc1cnc2n1CCN(C(=O)Cc1cccs1)C2C (stereo not drawn)", "Assay Target": "Plasmodium berghei", "Answer Label": "false (0)"}
{"Molecule": "COCCN1CCC2(CC1)CN(C(=O)N(C)C)c1ccc(C)cc12", "Assay Target": "Plasmodium berghei", "Answer Label": "false (0)"}
{"Molecule": "CCc1ccccc1OC1CN(C(=O)c2ccnc(OC)c2)C1", "Assay Target": "Plasmodium berghei", "Answer Label": "false (0)"}
{"Molecule": "CCN(CC)[C@@H]1CN(C(=O)c2ccc(C#N)cc2)[C@@H]2CCCO[C@H]12", "Assay Target": "Plasmodium berghei", "Answer Label": "false (0)"}
{"Molecule": "c1cc(COc2ccc(CNC3CCc4ncnn4C3)cc2)ccn1 (stereo not drawn)", "Assay Target": "Plasmodium berghei", "Answer Label": "true (1)"}
{"Molecule": "CNc1nc(CNC(=O)Nc2cccc(-n3ccc(C)n3)c2)cs1", "Assay Target": "Plasmodium berghei", "Answer Label": "true (1)"}
{"Molecule": "CC(=O)N1[C@H](Cn2cncn2)C[C@@H]2CN(c3ncc(F)cn3)CC[C@@H]21", "Assay Target": "Plasmodium berghei", "Answer Label": "false (0)"}
{"Molecule": "CN(C)[C@@H]1CN(C(=O)c2ccc(C#N)cc2)[C@@H]2CCCO[C@H]12", "Assay Target": "Plasmodium berghei", "Answer Label": "true (1)"}
{"Molecule": "CN(CC(=O)N1CC(C)(C)[C@@](C)(O)C1)Cc1ccncc1", "Assay Target": "Plasmodium berghei", "Answer Label": "false (0)"}
{"Molecule": "CCOCc1cnc2n1CCN(C(=O)Cc1ccco1)C2C (stereo not drawn)", "Assay Target": "Plasmodium berghei", "Answer Label": "true (1)"}
{"Molecule": "Cc1cc2c(cc1Cl)C=CC1(CCN(CC(=O)N3CCOCC3)CC1)O2", "Assay Target": "Plasmodium berghei", "Answer Label": "true (1)"}

====

INHIBITION values by entry
tested on: Plasmodium berghei; assay: Screen against P. berghei liver stage (PbLuc), transformed with Luciferase, at 10uM; type: functional, HepG2; conditions: tested at 10 uM
The campaign covered roughly 69,000 compounds. About 8,600 (12%) showed an effect of 50% or more. This is one part of a sample in which strong results are shown more often than they occur.
Observable: INHIBITION (%)

{"Compound": "Cc1nnc2n1CCN(C(=O)c1ccc(Cn3cccc3)cc1)C2", "Assay Target": "Plasmodium berghei", "Assay Value": -18.52}
{"Compound": "Cc1cccc(-c2nccnc2C2CCCN(C)C2)c1 (stereo unspecified)", "Assay Target": "Plasmodium berghei", "Assay Value": 16.105}
{"Compound": "CC(C)c1ccc(OCC(=O)N(C)C)cc1", "Assay Target": "Plasmodium berghei", "Assay Value": -11.2}
{"Compound": "CN(C)S(=O)(=O)N1C[C@H]2CCC[C@@]2(COc2cccnc2)C1", "Assay Target": "Plasmodium berghei", "Assay Value": -16.9}
{"Compound": "CCOc1c(F)cccc1C(=O)N(c1cccnc1)C(C)C", "Assay Target": "Plasmodium berghei", "Assay Value": 55.1}
{"Compound": "Cc1ncc2c(n1)CN(CCCc1ccccc1)CC2", "Assay Target": "Plasmodium berghei", "Assay Value": -21.8}
{"Compound": "Cn1cc(CC(=O)N2CCCC(c3ccn[nH]3)C2)cn1 (stereo unspecified)", "Assay Target": "Plasmodium berghei", "Assay Value": 5.11}
{"Compound": "COCCc1nnc(NC(=O)Cc2ccccc2Cl)o1", "Assay Target": "Plasmodium berghei", "Assay Value": 35.1}
{"Compound": "Cc1nnc2ccc(OCCNS(C)(=O)=O)nn12", "Assay Target": "Plasmodium berghei", "Assay Value": 5.91}
{"Compound": "COc1cc(C2SCC(=O)Nc3n[nH]cc32)cc(OC)c1O (stereo unspecified)", "Assay Target": "Plasmodium berghei", "Assay Value": 60.7}
{"Compound": "O=C(NCC1CCS(=O)(=O)C1)c1ccc(NC(=O)c2ccco2)cc1 (stereo unspecified)", "Assay Target": "Plasmodium berghei", "Assay Value": 18.6}
{"Compound": "Cc1c(Br)cccc1C(=O)NCC1CCNCC1", "Assay Target": "Plasmodium berghei", "Assay Value": 39.7}
{"Compound": "COc1cc(OC)c(C2SCC(=O)Nc3n[nH]cc32)cc1OC (stereo unspecified)", "Assay Target": "Plasmodium berghei", "Assay Value": 26.8}
{"Compound": "CCn1cc(CN(C)S(=O)(=O)c2ccc(C(C)C)cc2)cn1", "Assay Target": "Plasmodium berghei", "Assay Value": 26.7}
{"Compound": "Cc1nccc([C@H]2C[C@@H]3CCN(C(=O)c4c(C)noc4C)C[C@H]3O2)n1", "Assay Target": "Plasmodium berghei", "Assay Value": -3.88}
{"Compound": "COc1ccc(OC)c(C2SCC(=O)Nc3n[nH]cc32)c1 (stereo unspecified)", "Assay Target": "Plasmodium berghei", "Assay Value": 70.6}
{"Compound": "Cc1c(S(=O)(=O)N2CCCCC2c2nnc(-c3cccs3)o2)cnn1C (stereo unspecified)", "Assay Target": "Plasmodium berghei", "Assay Value": -11.28}
{"Compound": "Cn1ncc2ccc(C3CCCN(Cc4ccsc4)C3)nc21 (stereo unspecified)", "Assay Target": "Plasmodium berghei", "Assay Value": 33.45}
{"Compound": "CCOc1c(F)cccc1C(=O)N(CC)C(C)c1ccncc1 (stereo unspecified)", "Assay Target": "Plasmodium berghei", "Assay Value": 31.2}
{"Compound": "O=c1c2cnc(N3CCCCC3)nc2ccn1Cc1ccco1", "Assay Target": "Plasmodium berghei", "Assay Value": -33.7}
{"Compound": "Cc1noc(C2CCC3(CCN(C(=O)c4cnn(C)c4)CC3)O2)n1 (stereo unspecified)", "Assay Target": "Plasmodium berghei", "Assay Value": 44.1}
{"Compound": "CNC(=O)c1cc(S(=O)(=O)C(C)C)cs1", "Assay Target": "Plasmodium berghei", "Assay Value": 24.1}
{"Compound": "Cc1nccn1CCNC(=O)C1(C)CC(c2ccccc2)=NO1 (stereo unspecified)", "Assay Target": "Plasmodium berghei", "Assay Value": -1.16}
{"Compound": "Cn1cc(CN2CCC(F)(F)C3(CCN(c4ncc(F)cn4)C3)C2)cn1 (stereo unspecified)", "Assay Target": "Plasmodium berghei", "Assay Value": 12.5}
{"Compound": "N#Cc1cccc(Cl)c1NC1CCN(CC(N)=O)CC1", "Assay Target": "Plasmodium berghei", "Assay Value": 13.2}
{"Compound": "COc1cccc(C2SCC(=O)Nc3n[nH]cc32)c1OC(C)C (stereo unspecified)", "Assay Target": "Plasmodium berghei", "Assay Value": 40}
{"Compound": "COc1ccccc1CNC(=O)c1ccccc1-n1cnc(CN)c1", "Assay Target": "Plasmodium berghei", "Assay Value": -1.85}
{"Compound": "Oc1nc(N2CCOCC2)nc2nccc(-c3ccccn3)c12", "Assay Target": "Plasmodium berghei", "Assay Value": -21.3}
{"Compound": "NC(=O)c1ccc2c(c1)nc1n2CCN(Cc2ccco2)C1", "Assay Target": "Plasmodium berghei", "Assay Value": -7.9}
{"Compound": "CCN(CC)C(=O)N1CCOCC1c1c(C)nn(C)c1C (stereo unspecified)", "Assay Target": "Plasmodium berghei", "Assay Value": 10.7}
{"Compound": "CC(C)(Oc1ccc(C(N)=O)cc1)C(=O)N(CCC#N)C1CC1", "Assay Target": "Plasmodium berghei", "Assay Value": 23.3}
{"Compound": "FC(F)(F)CCc1ncnn1-c1ccc2c(c1)OCO2", "Assay Target": "Plasmodium berghei", "Assay Value": -147}
{"Compound": "CN1CCN(c2ncc3c(=O)n(Cc4ccco4)ccc3n2)CC1", "Assay Target": "Plasmodium berghei", "Assay Value": 41.3}
{"Compound": "Cc1cc(N)nc(SC2CCCN(Cc3ccccc3)C2=O)n1 (stereo unspecified)", "Assay Target": "Plasmodium berghei", "Assay Value": 26.8}
{"Compound": "c1cnc(N2CCN(C3CCC[C@@H]4CN(CC5CC5)C[C@H]34)CC2)nc1 (stereo partly specified)", "Assay Target": "Plasmodium berghei", "Assay Value": -34.7}
{"Compound": "Cc1ccc(C(C)N(C)C(=O)c2ccc(=O)n(C)c2)s1 (stereo unspecified)", "Assay Target": "Plasmodium berghei", "Assay Value": 37.4}
{"Compound": "Cc1cc(C)n(CC2CCCN2C(=O)c2cnc3n[nH]c(C)c3c2)n1 (stereo unspecified)", "Assay Target": "Plasmodium berghei", "Assay Value": 13.6}
{"Compound": "Cc1nn(C)c(C)c1C1COCCN1C(=O)CC(C)(C)C (stereo unspecified)", "Assay Target": "Plasmodium berghei", "Assay Value": 62.2}
{"Compound": "CC(=O)c1c(C)nn(S(=O)(=O)c2ccccc2)c1C", "Assay Target": "Plasmodium berghei", "Assay Value": 49.3}
{"Compound": "Cc1cc(N)nc(SC2CCN(c3ccccc3)C2=O)n1 (stereo unspecified)", "Assay Target": "Plasmodium berghei", "Assay Value": 6.94}
{"Compound": "O=C(CCN1CCCC1)Nc1c2c(cc3c1CCC3)CCC2", "Assay Target": "Plasmodium berghei", "Assay Value": 6.29}
